Data credit: patent US20240116985A1

target: Bcat-Halo (UniProt P35222); experiment: NanoBRET in HEK293 cells (Bcat-Halo / TCF4-Luc), absolute IC50; competitor: TCF4-Luc
Sequence (P35222 whole entry): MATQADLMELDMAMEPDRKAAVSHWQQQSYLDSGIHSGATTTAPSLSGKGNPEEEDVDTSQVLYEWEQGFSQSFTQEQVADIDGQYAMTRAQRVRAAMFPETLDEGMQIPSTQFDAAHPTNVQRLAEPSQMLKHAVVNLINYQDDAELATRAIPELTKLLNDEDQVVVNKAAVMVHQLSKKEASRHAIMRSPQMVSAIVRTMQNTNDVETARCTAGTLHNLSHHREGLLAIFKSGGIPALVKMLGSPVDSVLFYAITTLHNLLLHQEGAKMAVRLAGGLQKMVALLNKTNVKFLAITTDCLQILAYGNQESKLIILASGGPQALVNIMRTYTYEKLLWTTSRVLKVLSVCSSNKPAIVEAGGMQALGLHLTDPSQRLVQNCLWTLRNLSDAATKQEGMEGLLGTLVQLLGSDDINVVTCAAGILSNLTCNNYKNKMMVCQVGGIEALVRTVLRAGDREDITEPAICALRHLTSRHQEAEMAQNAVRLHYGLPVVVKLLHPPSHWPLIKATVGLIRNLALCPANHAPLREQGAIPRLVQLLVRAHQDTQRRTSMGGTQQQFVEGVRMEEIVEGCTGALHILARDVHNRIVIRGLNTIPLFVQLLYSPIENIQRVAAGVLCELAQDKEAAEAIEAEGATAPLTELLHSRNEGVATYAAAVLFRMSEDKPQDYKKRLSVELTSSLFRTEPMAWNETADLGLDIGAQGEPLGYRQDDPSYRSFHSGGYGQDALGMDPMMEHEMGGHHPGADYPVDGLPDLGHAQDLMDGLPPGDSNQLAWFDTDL
Starred links: 1 amine or outer side, 2 acyl side, 3 side chain; linkers in the order of their positions; H or OH if unused. Positions of bridges follow the written chain, without caps; N, C: chain ends. Non-standard residues stand in square brackets, D forms with d. Primed or numbered codes have the meaning given here. PyrS2″ = (S)-3-amino-1-((pent-4-en-1-yloxy)carbonyl)pyrrolidine-3-carboxylic acid (stapling residue), C=CCCCOC(=O)N1CC[C@@](N[*:1])(C(=O)[*:2])C1; B5(4) = 2,2-bis(4-pentenyl)glycine = 2-amino-2-(pent-4-en-1-yl)hept-6-enoic acid (stitching residue), C=CCCCC(CCCC=C)(N[*:1])C(=O)[*:2]; Bta = N[C@@H](Cc1csc2ccccc12)C(=O)O; αAllylPro = C=CC[C@@]1(C(=O)O)CCCN1; tBuAla = CC(C)(C)C[C@H](N)C(=O)O; 3Thi = N[C@@H](Cc1ccsc1)C(=O)O
Measurement Type: IC50 (µM)
Express it in µM; write the number only.

Qu. Give reported IC50 value for Ac-[αAllylPro]D[tBuAla][B5(4)]DEAAFN[PyrS2″]F[Bta]H-NH2 (staple 1-4, 4-11; not fully specified) [I-692]
Ans. 25.6

Qu. Give reported IC50 value for Ac-[αAllylPro]D[tBuAla][B5(4)]DEAAFN[PyrS2″][3Thi][Bta]Q-NH2 (staple 1-4, 4-11; not fully specified) [I-691]
Ans. 17
